System: VDR:RXRa (NR concentration 270 nM, RXRa partner concentration 90 nM)
Assay: PBM binding z-score (relative to random genomic background probes); higher = stronger binding; sequences stand for … in GC…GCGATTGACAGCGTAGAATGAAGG
measure name: PBM binding z-score
One number for each entry.

Consider the following illustrative entries.
* TGATATAGGTAAACAGGTGAAAGTCCGTAAGTTA | 0.405
* TCTTGTAGATCAGCAGGTTAAGGAAGCTGGCCAA | 0.37
* TTTCGGAGGACACGAAAGGTCAGAGCTCGACATC | 3.54
* GCTAGCAGGCCATTTGGGTCACTGAATGACGGGC | 0.821
* CGAACTAGGTCCGAACAGGACAGTGAAGGATGAT | -0.576

For each of the items listed, what is its PBM binding z-score?
1. CCTGCTAGGTCAACGGTCAGCTAAAGCAGCTCGC
2. ATCTCTAGGTATCAAGTTCAGTGAAAGAGAGGAC
3. CTCGAAAGGTCGTGCTCAGGTTAGTATACCAAAC

A.
[1.58, 1.94, 3.79]

Report PBM binding z-score for each item below.
1. ATCGAAAGGGCGAGGTGAGTATAGAGAAAGGGAA
2. CCGACTGGGGCAGAAAGGATACCATACCATCCGG
3. TCTAGCAGGCCACAGGGTCACTCAAGAGGTACGG
4. CCTTAAGGGTCAAGGTTATAGCACGGGTGGTACG
5. AATACATGGTCACTAGGCCAGAGTAGGTACGAAT
6. CAAACTAGGTGACAGAGGTCAAAGTCCGTGCGTA
7. CAAAGTAGGTCACAGAGGTCAAAGTCCGTGCGTA
8. AATACAGGGTCATCGTAGGCCAGTGTACGCACAG

A.
1. 0.361
2. -0.772
3. 2.93
4. 4.72
5. -0.0294
6. 6.42
7. 7.99
8. 5.18

Please report PBM binding z-score for every entry that follows.
1. ACAGACAGGTGAGTGAAGGTAACTTAGCTGGACG
2. CGAACTGGGTCATTGACAGGACAGTGAATAGTAA
3. CAAACTAGCTCAAAGGTCAAAGTCGAGCCAACCA
4. ACAGACAGGTCAGTGAAGGTAACTCAGCTGGACG
5. CGAACTAGGTCAGAACAGGACCGTGAAGGATGAT

A.
[-0.357, 2.05, 4.72, 1.41, -0.102]

Report PBM binding z-score for every entry below.
1. AGTCAAAGTTCATCTAGGTAACCTAAGATATGCT
2. GCATATAGGTAATATAAGGTGAAAGTCCGATTGT
3. CCTCGCAGGCCAATCTGGGTCACTCAAGGCTTGA
4. CGAACTAGGTCATCTAGGACAGTGAATACATTGA

A.
[5.11, 0.397, 0.596, 3.73]

Q. State the recorded PBM binding z-score for this entry: `AGTGAAAGTTCATCTAGGTAACGTAAGATATGCT`
A. 4.97

----------
System: THRa homodimer (NR concentration 90 nM)
Test: PBM binding z-score (relative to random genomic background probes); higher = stronger binding; sequences stand for … in GC…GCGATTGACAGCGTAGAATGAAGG
Classification field: enter Met for PBM binding z-score values not below 0.1, Not met for values below it.

• ACAGACAGTTGAGTGAAGGTAACTCAGCTGGACG = Not met

Q. Does the sequence `AATGCAGGGTCACTAGGCCAGAGTAGGTACGAAT` have recorded PBM binding z-score that is 0.1 or more?
A. Met

Q. I'd appreciate it if you could say whether `AGAATGATGTTAAGATCAGGGAAACAGAATACAT` has PBM binding z-score at least equal to 0.1.
A. Not met

Q. Evaluate `TTACCAAGGTGAGCCGAGGTCGTTGATCCAACTC` : PBM binding z-score at minimum 0.1?
A. Met

Q. Check this sequence for PBM binding z-score at or above 0.1: `TCATATAGGTAAATGGTAGGTGAAAGTCCGATCT`
A. Met

Q. Entry `TGAATGAGGTTATGAGATCAGGGAACGTTGCAAA` : is its PBM binding z-score no less than 0.1?
A. Met
